Origin of measurements: PubChem BioAssay (NCI)

System: HCT-15 colon
Assay: NCI tumour cell line growth inhibition, 48 h
readout_kind: TGI

In the examples that follow, each entry is paired with its recorded TGI.
COc1cccc(-c2nc3sccn3c2-c2ccnc(NCCNS(=O)(=O)c3ccccc3)c2)c1	> 100 µM
Cc1ccc(-c2nc(N)nc3c2nnn3Cc2cccc(CO[C@H]3CCOC3)n2)o1	> 100 µM
NC1CCCCC1N.O=S(=O)([O-])CCCN1CCOCC1.O=S(=O)([O-])CCCN1CCOCC1.[Pt+4]	> 56.6 µM
C(=NCc1ccccc1)c1ccccc1-c1ccccc1C=NCc1ccccc1	> 10 µM
COc1cc(NP(=O)(Oc2ccccc2)Oc2ccccc2)ccc1Nc1c2ccccc2nc2c1[nH]c1ccccc12	> 37.3 µM

The reported TGI value, HCT-15 colon, for `CCN(CC)CCNC(=O)c1nn(C)c(=S)[nH]c1=S` reads > 100 µM
